# System: LOX IMVI
# experiment.description: NCI tumour cell line growth inhibition, 48 h
Counter-ions that a name gives are not always drawn. Active and inactive are the calls of the source. No stated cut-off is given here; in the data, active = GI50 up to about 1.1 µM and inactive = higher.
Labels: active, inactive

compound | cat
CCc1cccc(CC)c1NC(=O)/C(Cl)=C(/Cl)C(=O)O | inactive
CSc1ncc2c(C#N)c3ccccn3c(=O)c2n1 | inactive
COc1c(C(C)C)cc2c3c1OC(=O)[C@@]31CCCC(C)(C)C1CC2 (stereo not given in full) | inactive
CC(C)(Oc1ccc2c(=O)cc(-c3ccccc3)oc2c1)C(=O)Nc1c(Cl)cccc1Cl | inactive
O=C(c1cc2c(c3ccccc13)NC1(CCCCC1)N=C2C(F)(F)F)C(F)(F)F | inactive
O=C(/C=C/c1ccsc1)c1ccco1 | inactive
CN(C)CCC=C1c2ccccc2C=Cc2ccccc21 [CYCLOBENZAPRINE HYDROCHLORIDE] | inactive
CC(C)OCC(O)COc1cc(=O)oc2ccccc12 (stereo not given) | inactive
Cc1ccnc2nc(-c3ccc4ccccc4c3)cc(O)c12 | active
CC(NC(=O)c1ccc(OP(=O)(OCc2ccc([N+](=O)[O-])o2)N(C)CCCCCl)cc1)c1ccc(OCC2CCCCC2)c(C(N)=O)c1 (stereo not given) | inactive

###

# Test system: DMS-114
# experiment.description: NCI tumour cell line growth inhibition, 48 h
The source made the active and inactive calls. Rule as the data show it: active = GI50 up to about 1.1 µM and inactive = higher.
Overview of recorded GI50 for various compounds

compound | GI50
COc1cc(C(=O)C(CO)Oc2ccccc2OC)ccc1O (stereo not drawn) | > 100 µM (inactive)
CC(C)(C)c1cc2ccc(C(N)=O)cc2c(=O)[nH]1 | > 100 µM (inactive)
Nc1nc2c(nnn2C2C=C(CO)C(O)C2O)c(=O)[nH]1 (stereo not drawn) | > 100 µM (inactive)
N#CC(N)(C(=O)CCC(=O)Nc1cccc(Cl)c1)c1ccc(Cl)cc1 (stereo not drawn) | > 100 µM (inactive)
O=S1(=O)OCCOS(=O)(=O)C1(Br)Cc1ccccc1 | > 100 µM (inactive)
CC(C)N1CN(C(C(=O)N[C@@H]2C(=O)N3C2SC(C)(C)C3C(=O)O)c2ccc(O)cc2)CSC1=S (stereo partly drawn) | > 100 µM (inactive)
CC(C)C1CC[C@@H](C)C[C@@]1(O)CC(N)=O (stereo partly drawn) | > 100 µM (inactive)
CCc1cccc(CC)c1NC(=O)/C(Cl)=C(/Cl)C(=O)O | 23.2 µM (inactive)
CCOC(=O)c1c(-c2[nH]c(C(=O)OCc3ccccc3)c(C)c2C(=O)OCC)[nH]c(C(=O)OCc2ccccc2)c1C | > 100 µM (inactive)
CCCN(CCC)CCc1cc(C(C)=O)n(S(=O)(=O)c2ccc(C)cc2)c1 | > 100 µM (inactive)
Nc1ccc(C(=O)NN2C(=O)C(Cl)C2c2cccc([N+](=O)[O-])c2)cc1 (stereo not drawn) | 18.7 µM (inactive)
c1ccc(-c2[nH]c(-c3ccccc3)c(-c3cnccn3)c2-c2cnccn2)cc1 | > 100 µM (inactive)
COC(=O)/C(Cl)=C1/CC1COCc1ccccc1 (stereo not drawn) | 28.8 µM (inactive)

###

Overview of recorded GI50 for various molecules
# System: SK-MEL-2
# experiment.description: NCI tumour cell line growth inhibition, 48 h
Activity calls are given as the source filed them. Cut-off read from the data, not from the text of the source: active = GI50 up to about 1.1 µM and inactive = higher.

molecule | GI50
c1cc2ccc1C1NCCCN1CCN1CCCNC1c1ccc(cc1)C1NCCCN1CCN1CCCNC21 (centres undefined) | > 100 µM (inactive)
CC1=NN(C(=O)c2ccccc2)C(=O)C1/N=N/c1ccccc1C(=O)O (centres undefined) | 6.21 µM (inactive)
O=c1ccc2c(Cl)cccc2o1 | > 100 µM (inactive)
O=c1[nH]c2ccc([N+](=O)[O-])cc2nc1/C(=N/Nc1ccccc1)C(O)c1ccco1 (centres undefined) | > 100 µM (inactive)

###

# System: DLD-1
# experiment.description: NCI tumour cell line growth inhibition, 48 h
Active and inactive are the calls of the source. No stated cut-off is given here; in the data, active = GI50 up to about 1.1 µM and inactive = higher.
Labels: class 1 for active, class 0 for inactive

compound | cat
Clc1ccc(CN2COc3c(cc(Cl)c4cccnc34)C2)cc1 | class 0
CC(=O)C1(O)CC2(c3ccccc3)C(=O)C1(c1ccccc1)C(c1ccccc1)=C2c1ccccc1 (centres undefined) | class 0
Cc1ccc(NC(=O)c2c(C)nc(=O)n3c2N(/N=C/c2ccc(Cl)cc2)CC3)cc1 | class 0
CC(C)C1CC[C@@H](C)C[C@@]1(O)CC(N)=O (some centres undefined) | class 0
COc1ccc(-c2cc(=O)c3cc(O)ccc3o2)c(OC)c1OC | class 0
OCc1cc2ccncc2c2c1[nH]c1ccccc12 | class 0
O=C1C(Cl)C(c2ccc([N+](=O)[O-])cc2)N1n1cnc2ccccc2c1=O (centres undefined) | class 0
CCN(CC)c1c(C(=O)/C=C/c2ccc(OC)cc2)c(-c2ccccc2)nn(C)c1=O | class 0
COc1cccc2c1C(=O)c1c(O)c3c(c(O)c1C2=O)C[C@@](O)(C(=O)CO)C[C@@H]3OC1CC(N2CCOCC2C#N)C(O)C(C)O1 (some centres undefined) | class 1
CN(C)CCNC(=O)c1cccc2c1Nc1ccccc1S2 | class 0
CN(C)CCNC(=O)c1cccc2cc([N+](=O)[O-])ccc12 | class 1
C=CNC(=S)n1nc(-c2ccccc2NC(=O)C(F)(F)F)c(=O)n(C(=S)NC=C)c1=S | class 0
CO/C=C/c1cc2c(cc1C(OC)OC)OCO2 | class 0
N#CCC(=O)N1CCCOCCC1 | class 0
C=C1C(=O)OC2C1CC[C@H](C)C13OC(=O)CC1[C@@]23C (some centres undefined) | class 0
CCc1cccc(CC)c1NC(=O)/C(Cl)=C(/Cl)C(=O)O | class 0
CCOc1ccc2c(c1)[n+]([O-])c(-c1ccccc1)c(N)[n+]2[O-] | class 0
c1ccc(-c2[nH]c(-c3ccccc3)c(-c3cnccn3)c2-c2cnccn2)cc1 | class 0
CC(C)N1CN(C(C(=O)N[C@@H]2C(=O)N3C2SC(C)(C)C3C(=O)O)c2ccc(O)cc2)CSC1=S (some centres undefined) | class 0
CC(=O)Nc1ccc(C2CC(c3ccc([N+](=O)[O-])cc3)=Nc3ccccc3[S+]2[O-])cc1 (centres undefined) | class 0
COC1=CC(=O)c2c(O)c3c(c(O)c2C1=O)C[C@](C)(O)C[C@@H]3O | class 0
CCC12CCCC(=O)N1C(CO)C(c1ccccc1)O2 (centres undefined) | class 0
CCOC(=O)NC(=O)c1cn(C2CCCCC2)c(=O)n(C)c1=O | class 0
CC1=NC2(C(=O)O)C3(C(=O)O)N=C(C)OC3(C(F)(F)F)C2(C(F)(F)F)O1 (centres undefined) | class 0
CC1C2C=C(O)C(=O)C(C2=O)C1c1ccccc1 (centres undefined) | class 0
CC1=C(C(=O)Nc2ccc([N+](=O)[O-])cc2)C(c2ccc(N(C)C)cc2)C(C(=O)Nc2ccc([N+](=O)[O-])cc2)=C(C)N1 | class 0
O=C(NCCCCNc1cccccc1=O)OCc1ccccc1 | class 0
Cc1c2cc[n+](C)cc2c(COC2OC(CO)C(O)C2O)c2c3ccccc3n(C)c12 (centres undefined) | class 0
Cc1c2cc[n+]([O-])cc2c(C)c2c1[nH]c1ccccc12 | class 0

###

# Tested on: M19-MEL
# experiment.description: NCI tumour cell line growth inhibition, 48 h
Calls of active or inactive are those of the source. Cut-off read from the data, not from the text of the source: active = GI50 up to about 1.1 µM and inactive = higher.
Overview of recorded GI50 for various molecules
measured.attribute: GI50

molecule | measured.attribute | recorded.measurement
CC(C)c1cc(C(C)C)c(S(=O)(=O)N=[N+]=[N-])c(C(C)C)c1 | GI50 | 34.9 µM (inactive)
CCN(CC)c1c(C(=O)/C=C/c2ccc(OC)cc2)c(-c2ccccc2)nn(C)c1=O | GI50 | 6.34 µM (inactive)
O=C(O)CN(c1ccc(Cl)cc1)S(=O)(=O)c1ccccc1 | GI50 | > 100 µM (inactive)
O=C(CC(=O)N1N=C(n2ccc3ccccc32)CC1c1ccccc1)Nc1ccccc1Cl (centres undefined) | GI50 | > 100 µM (inactive)

###

# Test system: NCI-H460
# experiment.description: NCI tumour cell line growth inhibition, 48 h
Activity calls are given as the source filed them. No stated cut-off is given here; in the data, active = GI50 up to about 1.1 µM and inactive = higher.
Labels: 1 for active, 0 for inactive

molecule | system | cat
Cc1ccc(S(=O)(=O)NNC(=O)c2cc(C)ccc2NC(=O)C23CC4CC(CC(C4)C2)C3)cc1 | NCI-H460 | 0
COc1cc(C2C(Cl)C(=O)N2NC(=O)c2ccc(NC(C)=O)cc2)ccc1O (stereo unspecified) | NCI-H460 | 0
CC(=O)O[C@H]1CC[C@@]2(C)C(=CC[C@H]3[C@@H]4CC[C@H](c5cc(C(F)(F)F)n(C(C)=O)n5)[C@@]4(C)CC[C@@H]32)C1 | NCI-H460 | 0
Clc1ccc(C2=NN(c3ccccc3)C3c4cc(Br)ccc4OCC23)cc1 (stereo unspecified) | NCI-H460 | 0
COc1ccc2nc3n(c2c1)C(c1c(F)cccc1Cl)SC3 (stereo unspecified) | NCI-H460 | 0
Clc1cc(OCc2nn3c(Cc4ccccc4)nnc3s2)ccc1OCc1nn2c(Cc3ccccc3)nnc2s1 | NCI-H460 | 0
CC(C)(C)c1cc[n+](C[n+]2ccc(C(C)(C)C)cc2)cc1 | NCI-H460 | 0
COc1cccc2c1C(=O)c1c(O)c3c(c(O)c1C2=O)C[C@@](O)(C(=O)CO)C[C@@H]3OC1CC(N2CCOCC2C#N)C(O)C(C)O1 (stereo partly specified) | NCI-H460 | 1
OCC1OC(n2cnc3c2NC=NC[C@H]3O)CC1O (stereo partly specified) | NCI-H460 | 0
O=C(O)C(Cc1c[nH]cn1)N1C(=O)c2ccccc2C1=O (stereo unspecified) | NCI-H460 | 0
O=C(/C=C/c1ccccc1)/C=C/c1ccccc1O | NCI-H460 | 0
Cl/C(=C\C=N\c1ccc(I)cc1)c1ccc2ccccc2c1 | NCI-H460 | 0
N#Cc1c(-c2ccc(Cl)cc2)c2c(n(C3OC(CO)C(O)C(O)C3O)c1=S)CCC2 (stereo unspecified) | NCI-H460 | 0
O=c1c2cccc3cccc(c4n1CCN=4)c32 | NCI-H460 | 0
COc1cc(C(=O)C(CO)Oc2ccccc2OC)ccc1O (stereo unspecified) | NCI-H460 | 0
OCc1cc2ccncc2c2c1[nH]c1ccccc12 | NCI-H460 | 0
CCc1cc(-c2nsc(=O)o2)c(S(=O)(=O)CC)s1 | NCI-H460 | 0
O=C(NNC(=O)c1ccccc1O)c1cccs1 | NCI-H460 | 0
CCOC(=O)c1cn2c(n1)sc1c(Cl)c(Cl)ccc12 | NCI-H460 | 0
CCC(O)c1ccc(/N=C/c2ccccc2O)cc1 (stereo unspecified) | NCI-H460 | 0
O=[N+]([O-])c1ccc(C2=NOC(c3ccccc3)N2C23CC4CC(CC(C4)C2)C3)cc1 (stereo unspecified) | NCI-H460 | 0

Sourced from ChEMBL document CHEMBL1201862
